molecular target: UniProtKB P03951; experiment: Factor XIa inhibition assay (FLINT) utilizing a fluorophore-quencher pair peptide substrate; type: biochemical; details: 30 min preincubation, kinetic reads over 30 min, 5Fam-[…]-K5Tamra substrate 15 μM; read-out: FXIa Kin Inh IC50
Kindly state pIC50 for each of the entries shown.
Give bare numbers, as −log10 of the molar value.

INSERT INTO results (compound, obs_value) VALUES
  ('Cn1c(=O)[nH]c2ccc(-c3cnc([C@@H]4CC[C@H]5CC(c6c(-n7cnnn7)ccc(Cl)c6F)=CC(=O)N54)[nH]3)cc21 (relative stereo)', 8.28),
  ('[2H]C([2H])(O)c1nccc(-c2cnc([C@@H]3CCC4CC(c5c(-n6cnnn6)ccc(Cl)c5F)=CC(=O)N43)[nH]2)c1Cl (stereo partly drawn)', 8.74),
  ('O=C(Nc1cnccc1-c1c[nH]c([C@@H]2CC[C@@H]3CC(c4c(-n5cnnn5)ccc(Cl)c4F)=CC(=O)N32)n1)C1CC1 (relative stereo)', 9.70);

For every item below, please supply its pIC50.
1. Nc1ccccc1-c1cnc([C@@H]2CC[C@H]3CC(c4c(-n5cnnn5)ccc(Cl)c4F)=CC(=O)N32)[nH]1 (relative stereo)
2. CS(=O)(=O)NC(=O)c1sc(-c2c[nH]c(C3CC[C@@H]4CC(c5c(-n6cc(C(F)(F)F)nn6)ccc(Cl)c5F)=CC(=O)N34)n2)cc1F (stereo partly drawn)

// result
[7.03, 8.27]

// query Param readout= pIC50; system= UniProtKB P03951; entry= [2H]C([2H])([2H])C(=O)Nc1cnc(C(F)(F)F)cc1-c1cnc([C@@H]2CC[C@@H]3CC(c4c(-n5cnnn5)ccc(Cl)c4F)=CC(=O)N32)[nH]1 ; returns value.
// result 7.28

----------
Target: Factor XIa (Homo sapiens (Human))
Assay: Factor XIa inhibition assay (FLINT) utilizing a fluorophore-quencher pair peptide substrate
Type: biochemical
Conditions: 30 min preincubation, kinetic reads over 30 min, 5Fam-KLTRAETV-K5Tamra substrate 15 μM; read-out: FXIa Kin Inh IC50
Description: Biological Example 1: Factor XIa Inhibition Assay Utilizing a Fluorophore-Quencher Pair Peptide Substrate A fluorescence intensity (FLINT) based assay was used to monitor inhibition of Factor XIa. The peptide substrate, 5Fam-[…]-K5Tamra (purchased from New England Peptide) was chosen based on the FXI sequence. […] The peptide substrate was designed with a fluorophore-quencher pair, where the fluorescence is quenched until FXIa cleaves the 8-mer peptide after the Arg residue. […]
Kindly state log10 of IC50 for each of the entries shown.
Scale: decimal log of IC50, IC50 in nM.

Please review the entries below; each comes with its answer.
INSERT INTO results (compound, study_target, readout_kind, obs_value) VALUES
  ('CC(=O)NCc1nccc(-c2cnc([C@@H]3CC[C@@H]4CC(c5c(-n6cnnn6)ccc(Cl)c5F)=CC(=O)N43)[nH]2)c1F', 'Factor XIa (Homo sapiens (Human))', 'log10 of IC50', 0.62),
  ('NC(=O)c1ncc(-c2cnc([C@@H]3CC[C@@H]4CC(c5c(-n6cc(Cl)nn6)ccc(Cl)c5F)=CC(=O)N43)[nH]2)s1', 'Factor XIa (Homo sapiens (Human))', 'log10 of IC50', 0.66),
  ('Cn1nncc1-c1c[nH]c([C@@H]2CCC3CC(c4c(-n5cnnn5)ccc(Cl)c4F)=CC(=O)N32)n1 (stereo partly shown)', 'Factor XIa (Homo sapiens (Human))', 'log10 of IC50', 2.13);

For every item below, please supply its log10 of IC50.
1. O=C1C=C(c2cc(Cl)ccc2-n2cnnn2)C(F)(F)C2CC[C@@H](c3ncc(-c4ccnc(CO)c4F)[nH]3)N12 (stereo partly shown)
2. Nc1ccc(-c2cnc([C@@H]3CC[C@H]4CC(c5c(-n6cnnn6)ccc(Cl)c5F)=CC(=O)N43)[nH]2)c(Cl)n1
3. O=C1C=C(c2c(-n3cnnn3)ccc(Cl)c2F)C[C@H]2CC[C@@H](c3ncc(-c4ccnc([C@@H](O)C(F)(F)F)c4F)[nH]3)N12 (single isomer, unassigned)
4. N#CCc1nccc(-c2c[nH]c([C@@H]3CC[C@@H]4CC(c5c(-n6cnnn6)ccc(Cl)c5F)=CC(=O)N43)n2)c1F
5. O=C1Nc2ccc(-c3cnc([C@@H]4CC[C@@H]5CC(c6c(-n7cnnn7)ccc(Cl)c6F)=CC(=O)N54)[nH]3)c(F)c2CO1 (single isomer, unassigned)
6. O=C(O)c1nccc(-c2cnc([C@@H]3CC[C@@H]4CC(c5c(-n6cc(C(F)(F)F)nn6)ccc(Cl)c5F)=CC(=O)N43)[nH]2)c1F
7. O=C1C=C(c2c(-n3cnnn3)ccc(Cl)c2F)C[C@H]2CC[C@@H](c3ncc(-c4cc(F)ncc4Cl)[nH]3)N12

// result
1.55
-0.52
0.61
0.60
-0.40
-0.15
1.56

----------
target: human plasma kallikrein (Homo sapiens (Human), UniProt P03952); experiment: Kallikrein inhibition assay (FLINT) utilizing a quenched AMC peptide substrate; format: biochemical; conditions: 30 min preincubation, kinetic reads over 30 min, Z-Gly-Pro-Arg-AMC substrate 50 μM; read-out: Kallikrein Kin Inh IC50
Sequence (P03952 391-638): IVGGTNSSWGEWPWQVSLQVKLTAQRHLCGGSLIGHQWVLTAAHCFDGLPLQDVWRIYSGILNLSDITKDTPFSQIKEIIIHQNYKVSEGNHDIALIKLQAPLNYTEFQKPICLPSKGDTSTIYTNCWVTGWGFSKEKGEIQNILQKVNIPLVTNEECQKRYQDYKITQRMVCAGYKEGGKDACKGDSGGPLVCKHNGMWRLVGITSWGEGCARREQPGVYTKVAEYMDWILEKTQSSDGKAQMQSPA
Sequence (P03952 20-390 partner): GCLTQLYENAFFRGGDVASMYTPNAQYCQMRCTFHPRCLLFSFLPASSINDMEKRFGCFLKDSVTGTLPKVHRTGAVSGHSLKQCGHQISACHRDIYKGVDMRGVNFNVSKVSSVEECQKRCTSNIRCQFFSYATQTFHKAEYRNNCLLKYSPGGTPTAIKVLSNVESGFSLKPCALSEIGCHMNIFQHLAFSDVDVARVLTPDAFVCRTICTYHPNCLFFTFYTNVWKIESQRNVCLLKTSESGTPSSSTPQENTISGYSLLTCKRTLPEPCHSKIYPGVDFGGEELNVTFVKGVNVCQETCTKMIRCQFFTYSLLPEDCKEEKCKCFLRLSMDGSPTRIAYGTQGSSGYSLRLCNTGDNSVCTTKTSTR
pIC50: −log10 of the molar value.
Label Met when pIC50 >= 8; otherwise Not met.

// query Given O=C(Nc1ccccc1-c1c[nH]c([C@@H]2CC[C@@H]3CC(c4c(-n5cnnn5)ccc(Cl)c4F)=CC(=O)N32)n1)C1CC1 , state whether its pIC50 is at least 8.
// result Met

----------
Kindly state pIC50 for each of the entries shown.
molecular target: Factor XIa (Homo sapiens (Human)); experiment: Factor XIa inhibition assay (FLINT) utilizing a fluorophore-quencher pair peptide substrate; format: biochemical; settings: 30 min preincubation, kinetic reads over 30 min, 5Fam-KLTRAETV-K5Tamra substrate 15 μM; read-out: FXIa Kin Inh IC50
Answers are plain numbers, as −log10 of the molar value.

Please review the entries below; each comes with its answer.
INSERT INTO results (molecule, obs_value) VALUES
  ('O=C1C=C(c2c(-n3cnnn3)ccc(Cl)c2F)C[C@H]2CC[C@@H](c3ncc(-c4ccnc(C(F)(F)F)c4)[nH]3)N12 [Example 351]', 8.57),
  ('Nc1ccc(-c2cnc([C@@H]3CC[C@@H]4CC(c5cc(Cl)ccc5-n5cnnn5)=CC(=O)N43)[nH]2)c(F)n1 [Example 123]', 9.40),
  ('COC(=O)Nc1ccc(-c2cnc([C@@H]3CCC4CC(c5c(-n6cnnn6)ccc(Cl)c5F)=CC(=O)N43)[nH]2)cn1 (stereo partly drawn) [Example 325]', 8.92),
  ('NC(=O)c1ccc(-c2cnc([C@@H]3CC[C@@H]4CC(c5c(-n6cc(C(F)(F)F)nn6)ccc(Cl)c5F)=CC(=O)N43)[nH]2)cn1 (single isomer, unassigned) [Example 212]', 7.69),
  ('O=C1C=C(c2c(-n3cnnn3)ccc(Cl)c2F)CC2CC[C@@H](c3nc(-c4ccnc(OC(F)F)c4)c[nH]3)N12 (stereo partly drawn) [Example 10]', 7.44);

Below: the item to evaluate.
// query Requested field: pIC50. Item: O=C1C=C(c2cc(Cl)ccc2-n2cnnn2)C[C@H]2CC[C@@H](c3ncc(-c4ccnc(NC56CC(C5)C6)c4F)[nH]3)N12 [Example 96]
// result 8.27

----------
Biological target: Factor XIa (Homo sapiens (Human), UniProt P03951)
Sequence (P03951 388-625): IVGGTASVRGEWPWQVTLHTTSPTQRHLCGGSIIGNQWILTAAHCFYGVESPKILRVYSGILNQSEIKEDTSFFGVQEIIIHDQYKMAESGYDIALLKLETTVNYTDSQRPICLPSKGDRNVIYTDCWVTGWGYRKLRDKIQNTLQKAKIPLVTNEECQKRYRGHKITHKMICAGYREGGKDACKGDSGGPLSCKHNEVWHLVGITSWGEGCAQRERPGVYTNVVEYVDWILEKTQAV
Sequence (P03951 19-387 partner): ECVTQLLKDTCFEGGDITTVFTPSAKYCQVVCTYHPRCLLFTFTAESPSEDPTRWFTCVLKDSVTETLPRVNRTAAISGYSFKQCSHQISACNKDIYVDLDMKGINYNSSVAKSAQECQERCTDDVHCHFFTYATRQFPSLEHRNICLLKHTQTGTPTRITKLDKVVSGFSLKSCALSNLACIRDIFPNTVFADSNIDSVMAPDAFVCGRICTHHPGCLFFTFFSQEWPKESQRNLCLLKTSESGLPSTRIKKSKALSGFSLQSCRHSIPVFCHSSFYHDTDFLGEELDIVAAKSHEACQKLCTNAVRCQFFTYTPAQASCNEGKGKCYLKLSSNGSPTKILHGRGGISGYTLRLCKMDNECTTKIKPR
Assay: Factor XIa inhibition assay (FLINT) utilizing a fluorophore-quencher pair peptide substrate
Assay type: biochemical
Conditions: 30 min preincubation, kinetic reads over 30 min, 5Fam-KLTRAETV-K5Tamra substrate 15 μM; read-out: FXIa Kin Inh IC50
From the text: Biological Example 1: Factor XIa Inhibition Assay Utilizing a Fluorophore-Quencher Pair Peptide Substrate A fluorescence intensity (FLINT) based assay was used to monitor inhibition of Factor XIa. The peptide substrate, 5Fam-[…]-K5Tamra (purchased from New England Peptide) was chosen based on the FXI sequence. […] The peptide substrate was designed with a fluorophore-quencher pair, where the fluorescence is quenched until FXIa cleaves the 8-mer peptide after the Arg residue. […]
Readout kind: pIC50
One number for each entry, as −log10 of the molar value.

For every item below, please supply its pIC50.
1. O=C1C=C(c2c(-n3cnnn3)ccc(Cl)c2F)CC2CC[C@@H](c3ncc(-c4cn[nH]c4Cl)[nH]3)N12 (stereo partly drawn)
2. CCOC(=O)Nc1ncccc1-c1c[nH]c([C@@H]2CC[C@@H]3CC(c4c(-n5cnnn5)ccc(Cl)c4F)=CC(=O)N32)n1
3. O=C1C=C(c2c(-n3cnnn3)ccc(Cl)c2F)C[C@H]2CC[C@@H](c3ncc(-c4c[nH]c5cnccc45)[nH]3)N12 (single isomer, unassigned)
4. [2H]c1nc([C@@H]2CC[C@@H]3CC(c4c(-n5cnnn5)ccc(Cl)c4F)=CC(=O)N32)[nH]c1-c1ccnc(C([2H])([2H])O)c1F

// result
1: 8.85; 2: 7.78; 3: 8.62; 4: 8.49

For every item below, please supply its pIC50.
1. C[C@@H](C#N)c1nccc(-c2cnc([C@@H]3CCC4CC(c5c(-n6cnnn6)ccc(Cl)c5F)=CC(=O)N43)[nH]2)c1F (relative stereo)
2. O=C1OCCN1c1nccc(-c2cnc([C@@H]3CC[C@@H]4CC(c5c(-n6cnnn6)ccc(Cl)c5F)=CC(=O)N43)[nH]2)c1F

// result
1. 8.37
2. 8.03
